Experiment: MHET released, HPLC; higher = more MHET released; extreme values may be limits of the assay
Conditions: PET substrate: aFilm; 70 °C; pH 9.5; 24 h
We use 0.09 mM as the dividing line for MHET released: on or above the line is Condition met, below is Condition not met.

itemSequence | discreteLabel
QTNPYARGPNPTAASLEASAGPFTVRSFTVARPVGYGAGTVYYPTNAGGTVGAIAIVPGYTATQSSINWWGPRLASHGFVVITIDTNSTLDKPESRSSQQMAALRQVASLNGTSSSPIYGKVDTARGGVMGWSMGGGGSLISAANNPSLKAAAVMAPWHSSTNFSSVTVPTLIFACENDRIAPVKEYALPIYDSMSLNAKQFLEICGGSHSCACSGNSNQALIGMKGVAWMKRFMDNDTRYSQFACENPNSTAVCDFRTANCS [HotPETase] | Condition not met
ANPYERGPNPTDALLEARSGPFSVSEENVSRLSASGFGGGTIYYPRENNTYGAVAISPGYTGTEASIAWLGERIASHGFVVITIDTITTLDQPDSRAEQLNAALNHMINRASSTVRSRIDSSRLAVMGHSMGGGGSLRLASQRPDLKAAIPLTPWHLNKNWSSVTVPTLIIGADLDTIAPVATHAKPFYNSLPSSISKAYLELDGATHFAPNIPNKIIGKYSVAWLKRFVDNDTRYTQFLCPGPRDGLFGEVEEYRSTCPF [TfCut2] | Condition not met
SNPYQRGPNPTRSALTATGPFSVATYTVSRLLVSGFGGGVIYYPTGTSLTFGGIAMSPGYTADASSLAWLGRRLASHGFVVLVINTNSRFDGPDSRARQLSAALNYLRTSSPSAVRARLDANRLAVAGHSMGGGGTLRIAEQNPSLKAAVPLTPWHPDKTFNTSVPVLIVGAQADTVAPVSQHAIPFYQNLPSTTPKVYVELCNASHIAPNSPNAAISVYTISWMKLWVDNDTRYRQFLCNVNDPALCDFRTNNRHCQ [LCC-ICCG I6M] | Condition met
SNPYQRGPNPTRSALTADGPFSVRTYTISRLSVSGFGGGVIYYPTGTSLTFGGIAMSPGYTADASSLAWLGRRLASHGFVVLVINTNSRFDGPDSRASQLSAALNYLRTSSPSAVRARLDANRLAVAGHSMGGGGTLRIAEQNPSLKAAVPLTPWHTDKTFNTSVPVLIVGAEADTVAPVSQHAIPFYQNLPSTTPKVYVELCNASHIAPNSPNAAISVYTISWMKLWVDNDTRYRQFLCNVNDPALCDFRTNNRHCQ [LCC-ICCG RIP] | Condition met
